# credit: patent US20070166547A1

assay: Polarographic study of electrochemical reduction (electrochemical activity); format: physicochemical; conditions: reverse stroke vs forward stroke
METRIC: half-wave potential more positive on reverse stroke than on forward stroke (mV)

COMPOUND	RECORDED_VALUE
O=c1[nH][nH]c(=O)c2nccnc12.[Na] [Compound 26]	27.0
Nc1cccc2c(=O)[nH][nH]c(=O)c12.[Na] [Compound 15]	30.0
O=c1[nH]n([C@@H]2O[C@H](CO)[C@@H](O)[C@H]2O)c(=O)c2ncnc(O)c12.[Na] [Compound 33]	27.0
O=c1[nH][nH]c(=O)c2ncccc12.[Na] [Compound 7]	25.0
O=c1[nH][nH]c(=O)c2nccnc12.[Li] [Compound 25]	20.0

----------
test: Polarographic study of electrochemical reduction (electrochemical activity); type: physicochemical; conditions: calculated with the Geirovsky-Ilkovich equation
Below, each entry is listed alongside its reported number of electrons participating in the reduction.
METRIC: number of electrons participating in the reduction

COMPOUND	RECORDED_VALUE
O=C([O-])c1ccc2c(=O)[nH][nH]c(=O)c2c1.O=C([O-])c1ccc2c(=O)[nH][nH]c(=O)c2c1.[Na+].[Na+] [Compound 18]	4.09
COP(=O)(OC)C(C)(C)CC(C)=O [dimephosphon, reference compound]	1.6
Nc1cccc2c(=O)[nH][nH]c(=O)c12.[Na] [Compound 15]	4.09
O=c1[nH]n([C@@H]2O[C@H](CO)[C@@H](O)[C@H]2O)c(=O)c2nc(O)cnc12.[Na].[Na] [Compound 23]	3.72

----------
Below, each entry is listed alongside its reported i, mkA (polarographic wave current).
assay: Polarographic study of electrochemical reduction (electrochemical activity); type: physicochemical; conditions: pH 7.4; 37° C.; 9·10^−4 M; forward trace; average for the group
METRIC: i, mkA (polarographic wave current) (mkA)

COMPOUND	RECORDED_VALUE
O=c1[nH][nH]c(=O)c2ncccc12.[Na]	0.27
O=c1[nH][nH]c(=O)c2ncncc12.[Li]	0.30
COP(=O)(OC)C(C)(C)CC(C)=O [dimephosphon, reference compound]	0.11
O=c1[nH][nH]c(=O)c2nccnc12.[Li]	0.34
O=c1[nH]n([C@@H]2O[C@H](CO)[C@@H](O)[C@H]2O)c(=O)c2nc(O)cnc12.[Na].[Na]	0.34
Nc1ncc2c(=O)[nH][nH]c(=O)c2n1	0.30
O=C([O-])c1ccc2c(=O)[nH][nH]c(=O)c2c1.O=C([O-])c1ccc2c(=O)[nH][nH]c(=O)c2c1.[Na+].[Na+]	0.29
Nc1cccc2c(=O)[nH][nH]c(=O)c12.[Na]	0.29
O=c1[nH]n([C@@H]2O[C@H](CO)[C@@H](O)[C@H]2O)c(=O)c2ncnc(O)c12.[Na]	0.30

----------
test system: indicator enzymes in blood plasma; assay: Morphine abstinence model: indicator enzymes AST, ALT, γ-GTP in blood plasma; type: in vivo, rats Wistar; conditions: morphinized rats then compound 20.0 mg/kg intramuscularly
Below, each entry is listed alongside its reported γ-GTP, Ci, mE/l, control + Morphine + Compound.
METRIC: γ-GTP, Ci, mE/l, control + Morphine + Compound (mE/l)

CHEMICAL_STRING	RECORDED_VALUE
O=c1[nH][nH]c(=O)c2c(Br)ncnc12.[K]	10.32
O=c1[nH][nH]c(=O)c2ncccc12.[Li]	12.52
Nc1cccc2c(=O)[nH][nH]c(=O)c12.[Na]	10.69
O=c1[nH][nH]c(=O)c2nccnc12.[Li]	11.37
